Below, each entry is listed with its recorded pKi.
# System under test: UniProt:Q9NWZ3
# Sequence (Q9NWZ3 whole entry): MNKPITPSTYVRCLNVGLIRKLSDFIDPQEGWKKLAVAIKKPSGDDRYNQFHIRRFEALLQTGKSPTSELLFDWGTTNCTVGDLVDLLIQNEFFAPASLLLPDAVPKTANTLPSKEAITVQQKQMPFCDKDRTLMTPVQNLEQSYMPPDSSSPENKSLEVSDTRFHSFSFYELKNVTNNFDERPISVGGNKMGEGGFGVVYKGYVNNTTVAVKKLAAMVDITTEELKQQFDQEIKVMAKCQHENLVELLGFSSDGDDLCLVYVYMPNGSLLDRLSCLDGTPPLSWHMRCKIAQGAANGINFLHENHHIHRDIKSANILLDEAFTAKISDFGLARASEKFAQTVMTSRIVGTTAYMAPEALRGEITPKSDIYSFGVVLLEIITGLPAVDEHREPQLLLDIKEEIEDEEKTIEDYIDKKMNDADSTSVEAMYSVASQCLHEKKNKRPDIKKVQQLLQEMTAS
# Test method notes: IRAK4 kinase inhibition, Transcreener fluorescence polarization ADP assay
# Experimental parameters: recombinant full-length His6-IRAK4; 125 uM ATP; 90 min; Ki computed using ATP Km 642 uM
# pKi: negative log10 of molar concentration; output just the value

// known answers, use as guide
INSERT INTO measurements (molecule, experimental_value) VALUES
  ('C[C@@]1(O)COc2cc(N3CCN(CC(N)=O)CC3)c(NC(=O)c3cnn4cccnc34)cc2C1', 8.22),
  ('C[C@H](N)CN1CCN(c2cc3c(cc2NC(=O)c2cnn4cccnc24)CC(C)(C)O3)CC1', 8.22),
  ('C[C@@]1(C(F)(F)F)Cc2cc(NC(=O)c3cnn4cccnc34)c(N3CCOCC3)cc2O1', 7.89),
  ('CC(C)(O)[C@H](F)CN1Cc2cc(NC(=O)c3cnn4cccnc34)c(C3CC3)cc2C1=O', 9.21),
  ('CC1(C)Cc2cc(NC(=O)c3cnn4cccnc34)c(-n3ccnc3)cc2O1', 7.06);

Form field pKi, entry `C[C@]1(CO)Cc2cc(NC(=O)c3cnn4cccnc34)c(N3CCC(CO)CC3)cc2O1` : 8.49

Notebook: `CSCCN1CCN(c2cc3c(cc2NC(=O)c2cnn4cccnc24)CC(C)(C)O3)CC1` , pKi read as 8.06

pKi reported for this molecule `C[C@@]1(CO)Cc2cc(NC(=O)c3cnn4cccnc34)c(N3C[C@@H]4[C@H](C3)[C@@H]4C(N)=O)cc2O1` : 5.96

Note to self: pKi recorded for CC1(C)Cc2cc(NC(=O)c3cnn4cccnc34)c(N3CC4CC3CC4(F)F)cc2O1 (stereo not shown) was 7.00

Record summary for `C[C@]1(CO)Cc2cc(NC(=O)c3cnn4cccnc34)c(N3C[C@H]4C[C@@H]3CO4)cc2O1` : reported pKi = 6.70

The molecule listed as `CC1(COc2cc3c(cc2NC(=O)c2cnn4cccnc24)CC(C)(C)O3)COC1` shows pKi equal to 7.51

The molecule identified as `C[C@]1(CO)Cc2cc(NC(=O)c3cnn4cccnc34)c(C(F)(F)F)cc2O1` registered its pKi at 6.04

// sample CC1(C)Cc2cc(NC(=O)c3cnn4cccnc34)c(N3CCC(C(N)C(F)(F)F)CC3)cc2O1 (stereo not shown) , its pKi was 8.54

Per the records, this molecule ( `CN(C)c1cc2c(cc1NC(=O)c1cnn3cccnc13)CN(C[C@@H](F)C(C)(C)O)C2=O` ) has pKi equal to 9.20

Input `C[C@]1(C(F)(F)F)Cc2cc(NC(=O)c3cnn4cccnc34)c(N3CCOCC3)cc2O1` . Output pKi: 7.60

GET /value?item= CC1(C)Cc2cc(NC(=O)c3cnn4cccnc34)c(N3CC[C@]4(CCOC4)C3)cc2O1 (single isomer, unassigned) &field=pKi returns 7.14
